Measured target: UniProt P33032
Protocol details: Activity at hMC5R transfected in HEK293 cells assessed as intracellular cAMP accumulation
Assay type: functional, cell-based
The source made the active and inactive calls. The calls are words filed in the database; no cut-off is given here.

{"Molecule smiles": "CC(=O)N[C@H]1CSSC[C@@H](C(=O)N(CCCCN=C(N)N)[C@@H](Cc2c[nH]c3ccccc23)C(N)=O)NC(=O)[C@@H](Cc2ccccc2)NC(=O)[C@H](Cc2c[nH]cn2)NC1=O", "Activity": "inactive"}
{"Molecule smiles": "CC(=O)N[C@H]1CSSC[C@H](C(=O)N[C@@H](Cc2c[nH]c3ccccc23)C(N)=O)N(CCCCN=C(N)N)C(=O)[C@@H](Cc2ccccc2)NC(=O)[C@H](Cc2c[nH]cn2)NC1=O", "Activity": "inactive"}
{"Molecule smiles": "CC(=O)N[C@H]1CSSC[C@@H](C(=O)N(CCCCN=C(N)N)[C@H](Cc2c[nH]c3ccccc23)C(N)=O)NC(=O)[C@@H](Cc2ccccc2)NC(=O)[C@H](Cc2c[nH]cn2)NC1=O", "Activity": "inactive"}

###

Could you please report measured pIC50 for the items listed next?
Measured target: Melanocortin receptor 4 (Homo sapiens, UniProt P32245)
Sequence (P32245 whole entry): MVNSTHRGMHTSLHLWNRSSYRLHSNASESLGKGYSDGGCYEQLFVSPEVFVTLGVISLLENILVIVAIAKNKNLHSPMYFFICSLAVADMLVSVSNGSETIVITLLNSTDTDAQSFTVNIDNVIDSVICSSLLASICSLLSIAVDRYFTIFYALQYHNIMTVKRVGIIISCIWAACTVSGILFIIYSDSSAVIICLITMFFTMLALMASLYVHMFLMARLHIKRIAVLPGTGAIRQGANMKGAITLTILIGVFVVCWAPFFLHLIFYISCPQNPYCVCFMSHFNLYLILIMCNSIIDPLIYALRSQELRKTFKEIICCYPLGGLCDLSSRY
Protocol details: Displacement of [125I]NDP-alphaMSH from human MC4 receptor expressed in HEK293 cells
Notebook: values listed as pIC50 are -log10 of the concentration (mol/L).

In one line, give reported pIC50 of the entry CC(=O)N[C@H]1CSSC[C@@H](C(=O)N[C@@H](Cc2c[nH]c3ccccc23)C(N)=O)N(CCCCN=C(N)N)C(=O)[C@@H](Cc2ccccc2)NC(=O)[C@H](Cc2cnc[nH]2)NC1=O .
8.74

Give recorded pIC50. CC(=O)N[C@H]1CSSC[C@@H](C(=O)N(CCCCN=C(N)N)[C@@H](Cc2c[nH]c3ccccc23)C(N)=O)NC(=O)[C@@H](Cc2ccccc2)NC(=O)[C@H](Cc2cnc[nH]2)NC1=O
8.39

// Input: CC(=O)N[C@H]1CSSC[C@@H](C(=O)N(CCCCN=C(N)N)[C@H](Cc2c[nH]c3ccccc23)C(N)=O)NC(=O)[C@@H](Cc2ccccc2)NC(=O)[C@H](Cc2cnc[nH]2)NC1=O . Output its pIC50 only.
9.15

Please look at this compound and report its pIC50: CC(=O)N[C@H]1CCC(=O)NCCC[C@@H](C(=O)N[C@@H](Cc2c[nH]c3ccccc23)C(N)=O)N(CCCCN=C(N)N)C(=O)[C@@H](Cc2ccccc2)NC(=O)[C@H](Cc2c[nH]cn2)NC1=O
7.00

###

Measured target: Melanocortin receptor 5 (Homo sapiens, UniProt P33032)
Sequence (P33032 whole entry): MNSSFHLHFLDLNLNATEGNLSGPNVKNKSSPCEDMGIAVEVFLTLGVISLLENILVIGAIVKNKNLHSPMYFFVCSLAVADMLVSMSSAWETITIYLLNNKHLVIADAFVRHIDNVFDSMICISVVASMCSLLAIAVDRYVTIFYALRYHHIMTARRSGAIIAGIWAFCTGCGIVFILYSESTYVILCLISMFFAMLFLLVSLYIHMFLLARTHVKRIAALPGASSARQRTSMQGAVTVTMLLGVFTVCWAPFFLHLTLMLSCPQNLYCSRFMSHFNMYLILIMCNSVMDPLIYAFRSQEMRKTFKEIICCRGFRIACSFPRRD
Protocol details: Activity at hMC5R transfected in HEK293 cells assessed as intracellular cAMP accumulation
Format: functional, cell-based
Calls of active or inactive are those of the source. The rule behind the calls is not given here.
Recorded metric: Activity

{"Compound": "CC(=O)N[C@H]1CCC(=O)NCCC[C@@H](C(=O)N[C@@H](Cc2c[nH]c3ccccc23)C(N)=O)N(CCCCN=C(N)N)C(=O)[C@@H](Cc2ccccc2)NC(=O)[C@H](Cc2c[nH]cn2)NC1=O", "Recorded metric": "Activity", "Result": "inactive"}
{"Compound": "CC(=O)N[C@H]1CCC(=O)NCCC(C(=O)N[C@@H](Cc2c[nH]c3ccccc23)C(N)=O)N(CCCCN=C(N)N)C(=O)[C@@H](Cc2ccccc2)NC(=O)[C@H](Cc2c[nH]cn2)NC1=O (stereo not given in full)", "Recorded metric": "Activity", "Result": "inactive"}
{"Compound": "CC(=O)N[C@H]1CSSC[C@@H](C(=O)N[C@@H](Cc2c[nH]c3ccccc23)C(N)=O)N(CCCCN=C(N)N)C(=O)[C@@H](Cc2ccccc2)NC(=O)[C@H](Cc2c[nH]cn2)NC1=O", "Recorded metric": "Activity", "Result": "inactive"}
{"Compound": "CC(=O)N[C@H]1CSSC[C@@H](C(=O)N(CCCCN=C(N)N)C(Cc2c[nH]c3ccccc23)C(N)=O)NC(=O)[C@@H](Cc2ccc3ccccc3c2)NC(=O)[C@H](Cc2c[nH]cn2)NC1=O (stereo in doubt)", "Recorded metric": "Activity", "Result": "inactive"}

Attention now turns to another entry.
For the compound CC(=O)N[C@H]1CCC(=O)NCCC[C@@H](C(=O)N[C@@H](Cc2c[nH]c3ccccc23)C(N)=O)N(CCCCN=C(N)N)C(=O)[C@@H](Cc2ccc3ccccc3c2)NC(=O)[C@H](Cc2c[nH]cn2)NC1=O , give its reported Activity.
inactive

Cited source: ChEMBL document CHEMBL1137337
